Give Trimeric HA Binding: RLU for every item shown.
- subjectOfTest: recombinant soluble homotrimeric HA of A/California/4/09 (H1N1) (Influenza A virus A/California/04/2009(H1N1))
- experimentalProtocol: HA microarray, BCC supernatant
- recordedConditions: remark: other sources report otherwise
Numbers only, in RLU.

Sample records with Trimeric HA Binding: RLU:
* TCN-563 (5237_B21) (antibody, V domains shown) VH: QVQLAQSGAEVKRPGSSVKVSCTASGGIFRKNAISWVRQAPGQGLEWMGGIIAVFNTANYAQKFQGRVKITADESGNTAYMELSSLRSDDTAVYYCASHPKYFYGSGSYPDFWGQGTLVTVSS VL: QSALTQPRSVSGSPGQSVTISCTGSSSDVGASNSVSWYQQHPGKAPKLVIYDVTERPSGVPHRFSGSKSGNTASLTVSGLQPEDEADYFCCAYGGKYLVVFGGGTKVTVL | 45200
* TCN-523 (5248_A17) (antibody, V domains shown) VH: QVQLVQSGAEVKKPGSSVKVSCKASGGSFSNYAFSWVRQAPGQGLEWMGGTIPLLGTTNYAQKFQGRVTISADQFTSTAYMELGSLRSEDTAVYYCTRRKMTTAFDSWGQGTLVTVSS VL: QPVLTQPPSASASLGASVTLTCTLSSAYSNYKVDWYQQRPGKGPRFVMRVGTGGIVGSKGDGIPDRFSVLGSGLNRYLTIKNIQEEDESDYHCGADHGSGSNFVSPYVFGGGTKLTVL | 34700

Turning to the following binder.
## Task Trimeric HA Binding: RLU lookup needed for TCN-528 (5087_P17) (antibody, V domains shown) VH: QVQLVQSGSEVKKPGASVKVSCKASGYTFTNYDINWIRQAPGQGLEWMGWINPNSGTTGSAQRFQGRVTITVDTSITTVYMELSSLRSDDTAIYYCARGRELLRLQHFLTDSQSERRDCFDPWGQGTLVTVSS VL: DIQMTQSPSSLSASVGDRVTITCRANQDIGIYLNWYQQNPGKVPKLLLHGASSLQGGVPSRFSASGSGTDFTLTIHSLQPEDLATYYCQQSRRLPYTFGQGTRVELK , thanks.
## Result 48800
